tested on: NCI-H460; assay: NCI tumour cell line growth inhibition, 48 h
Active and inactive are the calls of the source. Rule as the data show it: active = GI50 up to about 1.1 µM and inactive = higher.
Response enum: active, inactive

Examples from the recorded data:
> print(dat)
                                   compound  label.value
1    COC(=O)Nc1nc2cc(C(=O)c3cccs3)ccc2[nH]1       active
2  NNC(=O)C1CCC(=O)N1S(=O)(=O)c1ccccc1 (stereo not drawn)     inactive
3  CC1(CCCO)CCCCCCCCCC(C)(CCCO)C1=O (stereo not drawn)     inactive
4  COc1ccc(/N=C2\C(=S)N(c3ccc(OC)cc3)/C(=N/S(=O)(=O)c3ccccc3)N2c2ccccc2)cc1     inactive

Let us examine a further case.
-- ask Test call for this compound, please: Cc1nc(Cl)c(CBr)c(Cl)n1
-- reply inactive
